These measurements were taken from patent US20240109917A1.

Heads up, these compounds all have pIC50 values measured for His6-TEV-PDGFRβ (557-1016) (Homo sapiens (Human), UniProt P09619).
pIC50: −log10 of the molar value.
measured.endpoint: pIC50

{"compound": "COCCn1cc(-c2cn3ncc(C(=O)Nc4cc(NC(=O)CCC5CCCN5C(C)C)cnc4C)c3s2)cn1 (stereo not drawn)", "measured.endpoint": "pIC50", "measured.result": 9.15}
{"compound": "Cc1ncc(NC(=O)CN2C[C@@H](C)O[C@H](C)C2)cc1NC(=O)c1cnn2cc(-c3cnn(CCS(C)(=O)=O)c3)sc12 (relative stereo)", "measured.endpoint": "pIC50", "measured.result": 8.96}
{"compound": "COc1cc(-c2cn3ncc(C(=O)Nc4cc(NC(=O)CN5CC(C)(C)C5)cnc4C)c3s2)c(OC)nn1", "measured.endpoint": "pIC50", "measured.result": 9.15}
